B1: Ankyrin repeat and SAM domain-containing protein 6, residues 774 to 836; numbered along this chain, Q68DC2 (parent)
chain: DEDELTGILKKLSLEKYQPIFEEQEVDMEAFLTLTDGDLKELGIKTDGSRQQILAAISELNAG

- Variants of: B1
- method-summary: abundance fitness (aPCA) (normalised: wild type 0, dead -1); higher = more abundant; growth selection in yeast, the domain comes from the species named
- particulars: Homo sapiens
Recorded abundance fitness determines the label; the label ranges are group A (below -0.2), group B (-0.2 to below -0.05), group C (-0.05 or more)

Some solved entries appear below for comparison.
- D47S: group B
- E23C: group A
- E59A: group C
- S49C: group C

Asked: Bin this entry: E29K
Given back: group C

Asked: Lab note: which band did E2H land in?
Given back: group C

Asked: Assign a bin to I20T
Given back: group B

Asked: Lab note: which band did G43I land in?
Given back: group A

Asked: Could you tell me which band I57W belongs to?
Given back: group A

Asked: Please indicate the class for Y17N based on its abundance fitness.
Given back: group A

Asked: Band for the recorded abundance fitness of G7C ?
Given back: group B

Asked: Into which category would you place L34W ?
Given back: group A

Asked: Class label required: E15Q
Given back: group C

Asked: Class? Entry: K10Q
Given back: group A

Asked: State the band of E22T
Given back: group B
